Reported log10 IC50, Acetylcholinesterase (Electrophorus electricus).
Scale type: logarithmic (base 10). Underlying IC50 unit: nM.

{"molecule smiles": "COc1cccc2cc(C(=O)/C=C/c3cc[n+](Cc4ccc(Cl)c(Cl)c4)cc3)c(=O)oc12.[Cl-]", "log10 IC50": 2.64}
{"molecule smiles": "COc1cccc2cc(C(=O)/C=C/c3cc[n+](Cc4cccc(C#N)c4)cc3)c(=O)oc12.[Br-]", "log10 IC50": 1.88}
{"molecule smiles": "COc1cccc2cc(C(=O)/C=C/c3cc[n+](Cc4cccc(Cl)c4)cc3)c(=O)oc12.[Cl-]", "log10 IC50": 1.93}
{"molecule smiles": "O=C(/C=C/c1cc[n+](Cc2ccccc2F)cc1)c1cc2ccccc2oc1=O.[Cl-]", "log10 IC50": 2.73}
{"molecule smiles": "COc1cccc2cc(C(=O)/C=C/c3cc[n+](Cc4ccc(F)cc4)cc3)c(=O)oc12.[Cl-]", "log10 IC50": 2.67}
{"molecule smiles": "COc1cccc2cc(C(=O)/C=C/c3cc[n+](Cc4cccc(Cl)c4Cl)cc3)c(=O)oc12.[Cl-]", "log10 IC50": 2.08}
{"molecule smiles": "O=C(/C=C/c1cc[n+](Cc2ccc(F)cc2)cc1)c1cc2ccccc2oc1=O.[Cl-]", "log10 IC50": 2.88}
{"molecule smiles": "COc1ccc(C[n+]2ccc(/C=C/C(=O)c3cc4cccc(OC)c4oc3=O)cc2)cc1.[Cl-]", "log10 IC50": 3.17}

Okay, next one:
So what log10 IC50 did COc1cccc2cc(C(=O)/C=C/c3cc[n+](Cc4ccccc4C)cc3)c(=O)oc12.[Cl-] get with Acetylcholinesterase (Electrophorus electricus)?
-0.80

###

- assay overview: Selectivity ratio of IC50 for equine serum BuChE to IC50 for electric eel AChE
Please mark Y if the recorded Ratio IC50 is equal to or greater than 10, and N if it falls below.

{"molecule smiles": "COc1cccc2cc(C(=O)/C=C/c3cc[n+](Cc4cccc(Cl)c4)cc3)c(=O)oc12.[Cl-]", "class assignment": "N"}

Identify whether the reported Ratio IC50 of the following molecule is 10 or greater: COc1cccc2cc(C(=O)/C=C/c3cc[n+](Cc4ccc(C)cc4)cc3)c(=O)oc12.[Cl-]
N

Identify whether the reported Ratio IC50 of the following molecule is 10 or greater: COc1cccc2cc(C(=O)/C=C/c3cc[n+](Cc4ccc(Cl)c(Cl)c4)cc3)c(=O)oc12.[Cl-]
Y

Identify whether the reported Ratio IC50 of the following molecule is 10 or greater: COc1ccc(C[n+]2ccc(/C=C/C(=O)c3cc4cccc(OC)c4oc3=O)cc2)cc1.[Cl-]
N

Identify whether the reported Ratio IC50 of the following molecule is 10 or greater: COc1cccc2cc(C(=O)/C=C/c3cc[n+](Cc4ccc(CCl)cc4)cc3)c(=O)oc12.[Cl-]
N

Identify whether the reported Ratio IC50 of the following molecule is 10 or greater: O=C(/C=C/c1cc[n+](Cc2ccccc2F)cc1)c1cc2cc(Br)ccc2oc1=O.[Cl-]
Y

Identify whether the reported Ratio IC50 of the following molecule is 10 or greater: COc1cccc2cc(C(=O)/C=C/c3cc[n+](Cc4cccc(C)c4)cc3)c(=O)oc12.[Cl-]
Y

Identify whether the reported Ratio IC50 of the following molecule is 10 or greater: O=C(/C=C/c1cc[n+](Cc2ccc(F)cc2)cc1)c1cc2ccccc2oc1=O.[Cl-]
N
